Assay: Metabolic stability in human liver microsomes
Assay type: in vitro ADME
Please respond with reported CLint scaled for every item in the list.
Use mL/min/kg as the unit, but write only the number.

Record `CCN(CC)c1ccc2nc3c4ccccc4/c(=N\c4ccccn4)cc-3oc2c1` . Reported CLint scaled: 20.2

Record `CCN(CC)c1ccc2nc3ccc(=[N+](CC)CC)cc-3sc2c1` . Reported CLint scaled: 16.2

Record `CCNC(=S)NN=C(c1ccccn1)c1ccccn1` . Reported CLint scaled: 4

###

Assay: Plasma stability in pooled human plasma
Assay type: in vitro ADME
Details: 37°C
Please respond with reported half-life for every item in the list.

Record CCN(CC)c1ccc2nc3c4ccccc4/c(=N\c4ccccn4)cc-3oc2c1 [PhX6] . Reported half-life: > 2.5 h

Record CCN(CC)c1ccc2nc3ccc(=[N+](CC)CC)cc-3sc2c1 [AD01] . Reported half-life: 1.42 h

Record CCNC(=S)NN=C(c1ccccn1)c1ccccn1 [DpNEt] . Reported half-life: > 2.5 h

Values compiled from paper PMC10800708.
